# assayDetails: Plasma and liver concentration of antiviral peptides after oral gavage in mice
# Format: in vivo, female mice
# recordedConditions: female, mouse, plasma, po, 72 mg/kg
Bridge positions count the residues as written; N and C are the ends. Square brackets hold non-standard residues; d marks the D form. Peptide text beside a SMILES is read from it.
measuredQuantity: level at time molar at 1 h

CC(=O)NCC(=O)NCC(=O)N[C@@H](Cc1c[nH]cn1)C(=O)N[C@H]1CC(=O)NCCCC[C@@H](C(=O)N[C@@H](C(=O)N2CCC[C@@H]2C(N)=O)C(C)C)NC(=O)[C@H](CCCCN)NC(=O)[C@H](Cc2ccccc2)NC(=O)[C@H](CCCNC(=N)N)NC(=O)[C@H](Cc2ccc(O)cc2)NC1=O [TCMP01] (Ac-GGHDYRFKK[dV][dP]-NH2; lactam 4-9)
1000 nM
